Test system: IGROV-1
Test summary: Growth inhibition of human IGROV1 cells assessed as cell growth at 0.1 uM incubated for 48 hrs by sulforhodamine B assay relative to control
Type: functional
Experimental setup: IGROV-1, 48 h, read-out: Activity
Reported metric: growth at 0.1 µM (%)
Numbers only, in %.

Smiles notation	growth at 0.1 µM (%)
O=C(Nc1cccc(-n2cc(-c3ccncc3)c(-c3cc(O)cc(Cl)c3)n2)c1)Nc1ccc(Cl)c(Cl)c1	101
COc1cc(Cl)cc(-c2nn(-c3cccc(NC(=O)Nc4ccc(Cl)c(C(F)(F)F)c4)c3)cc2-c2ccncc2)c1	99
O=C(Nc1cccc(-n2cc(-c3ccncc3)c(-c3cc(O)cc(Cl)c3)n2)c1)c1ccc(N2CCOCC2)c(C(F)(F)F)c1	103
O=C(Nc1cccc(-n2cc(-c3ccncc3)c(-c3cc(O)cc(Cl)c3)n2)c1)c1cc(C(F)(F)F)cc(C(F)(F)F)c1	98
COc1cc(Cl)cc(-c2nn(-c3cccc(NC(=O)c4cccc(C(F)(F)F)c4)c3)cc2-c2ccncc2)c1	100

Ask: Given COc1cc(Cl)cc(-c2nn(-c3cccc(NC(=O)Nc4cccc(C(F)(F)F)c4)c3)cc2-c2ccncc2)c1 , state its recorded growth at 0.1 µM.
Result: 96
